Where these numbers come from: ChEMBL document CHEMBL1142736

Tested on: Human immunodeficiency virus 1
Test: Effective concentration against human immunodeficiency virus type 1 mutated at 188L
Assay type: functional, organism-based
pEC50: −log10 of the molar value.

molecule: Cc1cc(COCCC#N)cc(C)c1Nc1ccnc(Nc2ccc(C#N)cc2)n1
measurement-qualifier: =
pEC50: 7.40
//
molecule: Cc1cc(CC#N)cc(C)c1Nc1ccnc(Nc2ccc(C#N)cc2)n1
measurement-qualifier: =
pEC50: 7.60
//
molecule: C/C(=C\C#N)c1cc(C)c(Nc2ccnc(Nc3ccc(C#N)cc3)n2)c(C)c1
measurement-qualifier: =
pEC50: 8.40
//
molecule: Cc1ccnc2c1NC(=O)c1cccnc1N2C1CC1 [NEVIRAPINE]
measurement-qualifier: <
pEC50: 5.00
//
molecule: CC(C)Nc1cccnc1N1CCN(C(=O)c2cc3cc(NS(C)(=O)=O)ccc3[nH]2)CC1 [DELAVIRDINE]
measurement-qualifier: =
pEC50: 5.90
//
molecule: Cc1cc(/C(Cl)=C/C#N)cc(C)c1Nc1ccnc(Nc2ccc(C#N)cc2)n1
measurement-qualifier: =
pEC50: 8.10
//
molecule: C/C(C#N)=C/c1cc(C)c(Nc2ccnc(Nc3ccc(C#N)cc3)n2)c(C)c1
measurement-qualifier: =
pEC50: 7.50
//
molecule: C/C(C#N)=C\c1cc(C)c(Nc2ccnc(Nc3ccc(C#N)cc3)n2)c(C)c1
measurement-qualifier: =
pEC50: 8.50
//
molecule: Cc1cc(CCC#N)cc(C)c1Nc1ccnc(Nc2ccc(C#N)cc2)n1
measurement-qualifier: =
pEC50: 7.70
//
molecule: Cc1cc(/C=C/C#N)cc(C)c1Nc1ccnc(Nc2ccc(C#N)cc2)n1 [RILPIVIRINE]
measurement-qualifier: =
pEC50: 8.70
